experiment: Quantitative High-Throughput drug screen in 47 multiple myeloma cell lines against the NCATS MIPE library collection: XG6_PLB cell viability assay (AID 1919865); conditions: XG6 myeloma viability, CellTiter-Glo ATP luminescence, 48 h; series mostly up to 45.8 µM; note: nearly all actives have a fitted effect of over 40% in size
Records with an inconclusive call do not appear. Calls of active or inactive are those of the source. Calls come from the whole dose curve; as a rule, active = well fitted cell-killing curve with a large enough effect; inconclusive = small, poorly fitted or top-dose-only effect, or effect the other way; inactive = no such curve, though single readings can be large or run the other way.
Labels: YES for active, NO for inactive

[[record]]
compound = "CCN(C(=O)c1c(O)c2c(Cl)cccc2n(C)c1=O)c1ccccc1"
qualitative_label = "NO"

[[record]]
compound = "CC(=O)SCC(Cc1ccccc1)C(=O)NCC(=O)OCc1ccccc1 (stereo not drawn)"
qualitative_label = "YES"

[[record]]
compound = "COc1cc(OC)c(NC(=O)Nc2cc(C)on2)cc1Cl"
qualitative_label = "NO"

[[record]]
compound = "CCC[C@H]1C[C@H](C(=O)N[C@@H]([C@@H]2O[C@@H](SC)[C@@H](O)[C@@H](O)[C@@H]2O)[C@H](C)Cl)N(C)C1"
qualitative_label = "NO"

[[record]]
compound = "COc1ccc2cc([S+]([O-])Cc3ncc(C)c(OC)c3C)nc2c1"
qualitative_label = "NO"

[[record]]
compound = "C[C@@H]1[C@H](C)CC[C@]2(C(=O)O)CC[C@]3(C)C(=CC[C@@H]4[C@@]5(C)C[C@@H](O)[C@H](O)[C@@](C)(CO)[C@H]5CC[C@]43C)[C@@H]12"
qualitative_label = "NO"

[[record]]
compound = "COc1cccc2c1C(=O)c1c(O)c3c(c(O)c1C2=O)C[C@@](O)(C(C)=O)C[C@H]3O[C@H]1C[C@H](N)[C@H](O)[C@H](C)O1"
qualitative_label = "YES"

[[record]]
compound = "CCNC(=O)Nc1ccc(-c2nc3c(c(N4CCOC[C@H]4C)n2)CCN(C2COC2)C3)cc1"
qualitative_label = "YES"

